These entries and their values trace back to PubChem BioAssay.

Assay: cell viability in Huh7 cells, primary screen, cytotoxicity control for HCV replication inhibitor project, CellTiter-Glo luminescence, basal, 48 h (AID 1143);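 also: Huh7 hepatoma cells carrying a hepatitis C replication reporter with no stimulus; test concentration not given here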
Settings: Huh7 HCV replicon, higher = more signal, called active from +8 up or from −8 down
Can you tell me z-score for the items I'm about to list?
Numbers only.

Some molecules with known z-score results, for comparison:
{"columns": ["MOLECULAR_STRING", "z-score"],
 "data": [
  ["COC(=O)C[C@H]1O[C@]2(C(=O)N(C)c3ccccc32)[C@@H](C)[C@@H]1[Si](C)(C)c1ccc(OC)cc1", -4.23],
  ["COC(=O)[C@@]1(Cc2ccccc2)[C@H]2c3cc(C(=O)N4CCCC4)n(CCN4CNCC4=O)c3C[C@H]2CN1C(=O)c1ccccc1", -0.119]
]}

Your task in this section: give z-score for each listed record.
1. CO[C@@H]1COC(=O)[C@H](C)NC(=O)CC=C[C@@H](C)[C@H](OC)COC(=O)[C@H](C)NC(=O)CC=C[C@H]1C
2. C=CCOC(=O)[C@@H]1[C@H]2C(=O)O[C@H](c3ccccc3)[C@H](c3ccccc3)N2[C@H](c2ccc(OCCOC(=O)[C@H]3C[C@H]4C(=O)N5CCC[C@H]5C(=O)N4[C@H]3c3ccc(O)cc3)cc2)[C@@]12C(=O)Nc1ccccc12
3. COCCCNC(=O)[C@@]1(c2ccc([N+](=O)[O-])cc2)CC(=O)N(C2CCCCC2)[C@@H]1c1ccc(CO)cc1
4. Cc1ccc(S(=O)(=O)N[C@H]2COC(=O)CC=C[C@H](C)COC(=O)N[C@@H](C)C(=O)CC=C[C@@H]2C)cc1

1. -0.164
2. -3.23
3. -1.72
4. -1.67
